Test: acute toxicity (LD50), intraperitoneal injection in mice
Conditions: mouse, in vivo, ip; intraperitoneally injected into mice
measure: LD50

compound | reported
NC(C(=O)O)c1ccc(CO)c(O)c1 (stereo not shown) [compound (I), forphenicinol] | > 500 mg/kg
